# credit: ChEMBL document CHEMBL1201862

test system: M14; test: NCI tumour cell line growth inhibition, 48 h
Where a name gives a salt, the structure may show the parent alone. Activity calls are given as the source filed them. Cut-off read from the data, not from the text of the source: active = GI50 up to about 1.1 µM and inactive = higher.
endpoint name: GI50

Asked: // lookup GI50 for `Cc1c(C)c(CC(=O)N2CC2)c(C)c(C)c1CC(=O)N1CC1`
Given back: 5.25 µM (inactive)

Asked: And CC1=CC2C(C=C1)S(=O)(=O)N1CC21c1ccccc1 (stereo unspecified) ?
Given back: > 100 µM (inactive)

Asked: And `O=C(O)CCNc1[nH]cnc2ncnc1-2` ?
Given back: > 100 µM (inactive)

Asked: And CC(C)(Cl)C(Br)CCC(C)(Cl)C(Br)CBr (stereo unspecified) ?
Given back: 34.5 µM (inactive)

Asked: And `Cc1ccc(S(=O)(=O)N2CCN(CCN(C)CCN3CCN(S(=O)(=O)c4ccc(C)cc4)CC3)CC2)cc1` ?
Given back: 17.2 µM (inactive)

Asked: And COc1cc(S(=O)(=O)Nc2ccc(-c3csc(N4C(=O)C(C)SC4c4ccccc4O)n3)cc2)ccc1Cl (stereo unspecified) ?
Given back: 40.2 µM (inactive)

Asked: And COC(=O)C12C3C=CC(O3)C1C1C=CC2O1 (stereo unspecified) ?
Given back: > 100 µM (inactive)

Asked: And CC(C)C[C@H]1C(=O)N2CCC[C@H]2[C@]2(O)O[C@](NC(=O)[C@@H]3C=C4c5cccc6[nH]c(Br)c(c56)C[C@H]4N(C)C3)(C(C)C)C(=O)N12 [BROMOCRIPTINE MESYLATE] ?
Given back: 61.1 µM (inactive)

Asked: And CC(C)(C)OC(=O)NCCCCC(NC(=O)OCc1ccccc1)C(N)=O (stereo unspecified) ?
Given back: > 100 µM (inactive)

Asked: And Cn1c(=O)n2n(c1=O)C([S+]([O-])c1ccccc1)C2 (stereo unspecified) ?
Given back: > 100 µM (inactive)

Asked: And O=C(CCCC1Cc2ccccc2C1=O)c1ccccc1 (stereo unspecified) ?
Given back: 99.8 µM (inactive)

Asked: And `Cc1ccc(S(=O)(=O)O/N=C2\CCC\C2=C/c2ccccc2)cc1` ?
Given back: 21.3 µM (inactive)

Asked: And CC1OC(O[C@@H]2OC=C(C=O)[C@@]3(O)CC[C@H](C)[C@@H]23)C(O)C(O)C1O (stereo partly specified) ?
Given back: > 100 µM (inactive)

Asked: And `CC(=O)OCCOCNC(=S)N/N=C/c1ccc([N+](=O)[O-])s1` ?
Given back: 40 µM (inactive)

Asked: And Cc1cccc(C)c1N1C(=O)C(=O)C(c2nc3ccccc3s2)/C(=N/NC(=O)c2ccccc2O)C1=O (stereo unspecified) ?
Given back: 10.1 µM (inactive)

Asked: And `Cc1ccc(-c2n[nH]c(=O)[nH]2)cc1[N+](=O)[O-]` ?
Given back: > 100 µM (inactive)

Asked: And CC(=O)N1C(Nc2ccccc2)CCN1c1ccccc1 (stereo unspecified) ?
Given back: > 10 µM (inactive)

Asked: And N=C(N)NCCCC(NC(=O)OCCCCCn1ccc(N)nc1=O)C(=O)O (stereo unspecified) ?
Given back: > 100 µM (inactive)

Asked: And `Cc1cc(OC(=O)NCn2cc(-c3ccccc3)nn2)ccc1Cl` ?
Given back: 67.3 µM (inactive)

Asked: And OCC1CC2CC1C1(C2)OCCO1 (stereo unspecified) ?
Given back: > 100 µM (inactive)

Asked: And `COc1cc(C(=O)c2cocc2C(=O)c2ccc3c(c2)OCO3)cc(OC)c1OC` ?
Given back: 1 µM (active)

====

test system: ACHN; assay: NCI tumour cell line growth inhibition, 48 h
Structures can show the parent of a compound that is named as a salt. Active and inactive are the calls of the source. Cut-off read from the data, not from the text of the source: active = GI50 up to about 1.1 µM and inactive = higher.
Field: GI50. Provide a value for each of the compounds that follow.

Asked: // lookup GI50 for `Nc1ccc2c(=O)cc(-c3ccc(Br)s3)[nH]c2n1`
Given back: 7.16 µM (inactive)

Asked: And `NC(=O)NC(=O)Nc1ccc(Br)cc1` ?
Given back: > 9.62 µM (inactive)

Asked: And `O=C(NCc1ccccc1)c1nn[nH]c1O` ?
Given back: > 100 µM (inactive)

Asked: And `O=C(c1ccccc1)N1CCN(C(=S)N(C(=O)c2ccccc2)c2ccccc2)C1=S` ?
Given back: 2.79 µM (inactive)

Asked: And `Cn1cc2ccccc2c1-c1nc(F)nc(F)n1` ?
Given back: > 100 µM (inactive)

Asked: And `C/C(=N\NC(N)=S)c1ccc(/C(C)=N/NC(N)=S)cc1` ?
Given back: > 100 µM (inactive)

Asked: And COC(=O)C1(C)CCCC2(C)C3CCC4CC3(C=C4CO)CCC12 (stereo not given) ?
Given back: 41 µM (inactive)

Asked: And COc1ccccc1OCC(COC(=O)Nc1ccccc1)OC(=O)Nc1ccccc1 (stereo not given) ?
Given back: > 100 µM (inactive)

Asked: And CC(C)C[C@H]1C(=O)N2CCC[C@H]2[C@]2(O)O[C@](NC(=O)[C@@H]3C=C4c5cccc6[nH]c(Br)c(c56)C[C@H]4N(C)C3)(C(C)C)C(=O)N12 [BROMOCRIPTINE MESYLATE] ?
Given back: 13 µM (inactive)

Asked: And O=C1O[C@@H](c2ccc3c(c2)OCO3)C2C(=O)O[C@@H](c3ccc4c(c3)OCO4)C12 (stereo not given in full) ?
Given back: > 100 µM (inactive)

====

tested on: SW-620; experiment: NCI tumour cell line growth inhibition, 48 h
Activity calls are given as the source filed them. No stated cut-off is given here; in the data, active = GI50 up to about 1.1 µM and inactive = higher.
Use one of these outcomes when replying: yes (1) = active, no (0) = inactive

Asked: Which outcome was entered for the molecule C[C@H]1[C@H](C)N(Cc2ccccc2)P(=O)(C(O)/C=C/c2ccccc2)N1Cc1ccccc1 (stereo partly drawn) in this test?
Given back: no (0)

Asked: And `CC(=O)Nc1ccc(SC#N)c2c(NC(C)=O)cccc12` ?
Given back: no (0)

Asked: And `C[C@]12CCC(=O)C(O)=C1CCC2=O` ?
Given back: no (0)

Asked: And Cc1ccc(C(=O)N2c3ccccc3N(C)n3cccc3C2CC(=O)O)cc1 (stereo not drawn) ?
Given back: no (0)

Asked: And `CCc1cccc2c3c([nH]c12)-c1ccccc1NC(=O)C3` ?
Given back: no (0)

Asked: And COC(=O)/C(=N/O)C(C(=O)C=C(C)C)C(=O)C(=O)Nc1nc2ccc([N+](=O)[O-])cc2s1 (stereo not drawn) ?
Given back: no (0)

Asked: And `COc1nc2c(OC)cccc2c(OC)c1C=O` ?
Given back: no (0)

Asked: And `CC1=CC(=O)/C(=C/NC(=S)NCc2ccccc2)C(=O)O1` ?
Given back: no (0)

Asked: And `C=CCOn1c(C=C)nc2c(C)cccc21` ?
Given back: no (0)

Asked: And `CCCCN(C)/N=N/c1[nH]cnc1C(N)=O` ?
Given back: no (0)

Asked: And CNC(=O)N(C1=NCC(C)S1)c1ccc(C)c(C)c1 (stereo not drawn) ?
Given back: no (0)

Asked: And COC(=O)C1C(=O)CC(C)(O)C(C(=O)OC)C1c1ccc(N(C)C)cc1 (stereo not drawn) ?
Given back: no (0)

Asked: And N#CC(C(=O)CCCC(=O)Nc1ccccc1[N+](=O)[O-])c1c(Cl)cccc1Cl (stereo not drawn) ?
Given back: no (0)

Asked: And `CCCCCCCCCCCCCCCC(=O)N[C@H]1CCc2cc(OC)c(OC)c(OC)c2-c2ccc(SC)c(=O)cc21` ?
Given back: yes (1)

Asked: And `Sc1nnc(C23CC4CC(CC(C4)C2)C3)n1-c1ccc(Cl)cc1` ?
Given back: no (0)

Asked: And `COc1ccc(CCCCNCc2cccc(CNCCCCc3ccc(OC)cc3)c2)cc1` ?
Given back: no (0)

Asked: And CC(=O)OC(C)c1cc2c(s1)C(=O)c1ccsc1C2=O (stereo not drawn) ?
Given back: yes (1)

Asked: And O=C(OC1C#CCSCC#C/C=C\1)c1cnc2ccccc2n1 (stereo not drawn) ?
Given back: no (0)

====

tested on: SNB-78; test: NCI tumour cell line growth inhibition, 48 h
Activity calls are given as the source filed them. No stated cut-off is given here; in the data, active = GI50 up to about 1.1 µM and inactive = higher.
Field: GI50. Provide a value for each of the compounds that follow.

Asked: // lookup GI50 for `COc1ccc(CCc2cc(OC)c(OC)c(OC)c2)cc1`
Given back: 0.0169 µM (active)

Asked: And `c1ccc(-c2csc3ncn4cnnc4c23)cc1` ?
Given back: > 100 µM (inactive)

Asked: And `CNC(=S)/N=C(\N)N(C)C` ?
Given back: > 100 µM (inactive)

Asked: And `CCOC(=O)C1=C(O)C(=O)c2ccccc2C1=O` ?
Given back: > 100 µM (inactive)

Asked: And COc1nc2c(nc(N)n2C2OC(CO)C(O)C(O)C2O)c(=O)n1C (stereo unspecified) ?
Given back: > 100 µM (inactive)

Asked: And `Cc1c(C)c(CC(=O)N2CC2)c(C)c(C)c1CC(=O)N1CC1` ?
Given back: 13.7 µM (inactive)
